All values here come from paper PMC11099041.

Assay: Mouse pharmacokinetics in CD-1 mice (blood, kidney, liver, lung)
Assay type: in vivo
Conditions: male, CD-1, mouse, in vivo, 20 mg/kg, Kidney; 8 h; 20 mg/kg IV; mean; read-out: Concentration (µM) from 20 mg/kg Dosing Kidney
PROPERTY MEASURED: concentration at 8 h (µM)

Cc1ncsc1-c1ccc(C(C)NC(=O)C2CC(O)CN2C(=O)C(c2cc(N3CCC(CN4CCC(OC5CC(Oc6cc(N7C8CCC7CN(c7cc(-c9ccccc9O)nnc7N)C8)ccn6)C5)CC4)CC3)no2)C(C)C)cc1 (stereo not shown)    8.43

###

Test: Mouse pharmacokinetics in CD-1 mice (blood, kidney, liver, lung)
Type: in vivo
Conditions: male, CD-1, mouse, lung, intravenous, 20 mg/kg, Lung; 24 h; 20 mg/kg IV; mean; read-out: Concentration (µM) from 20 mg/kg Dosing Lung
PROPERTY MEASURED: concentration at 24 h (µM)

Cc1ncsc1-c1ccc(C(C)NC(=O)C2CC(O)CN2C(=O)C(c2cc(N3CCC(CN4CCC(OC5CC(Oc6cc(N7C8CCC7CN(c7cc(-c9ccccc9O)nnc7N)C8)ccn6)C5)CC4)CC3)no2)C(C)C)cc1 (stereo not shown)    0.602

###

Tested on: CYP3A4/5
Assay: Reversible P450 inhibition in HLM
Format: biochemical
Conditions: human, human liver microsomes, pH 7.4, probe testosterone, substrate Testosterone
Procedure: The reversible P450 inhibition assay was conducted in triplicate on a BioCel 1200 System, V11 (Agilent, CA), as previously described by Kosaka, et al.[28] […] P450 activity was expressed as the peak area ratio of a P450-specific metabolite formed relative to its internal standard, and inhibition percentage was calculated from P450 activity of samples relative to the solvent control. […]
PROPERTY MEASURED: IC50

Cc1ncsc1-c1ccc(C(C)NC(=O)C2CC(O)CN2C(=O)C(c2cc(N3CCC(CN4CCC(OC5CC(Oc6cc(N7C8CCC7CN(c7cc(-c9ccccc9O)nnc7N)C8)ccn6)C5)CC4)CC3)no2)C(C)C)cc1 (stereo not shown)    > 10 µM

###

Assay: Mouse pharmacokinetics in CD-1 mice (blood, kidney, liver, lung)
Format: in vivo
Conditions: male, CD-1, mouse, in vivo, 20 mg/kg, Kidney; 8 h; 20 mg/kg IV; individual animals; read-out: Concentration (µM) from 20 mg/kg Dosing Kidney
PROPERTY MEASURED: concentration at 8 h (µM)

Cc1ncsc1-c1ccc(C(C)NC(=O)C2CC(O)CN2C(=O)C(c2cc(N3CCC(CN4CCC(OC5CC(Oc6cc(N7C8CCC7CN(c7cc(-c9ccccc9O)nnc7N)C8)ccn6)C5)CC4)CC3)no2)C(C)C)cc1 (stereo not shown) [A947]    6.14

###

Assay: Mouse pharmacokinetics in CD-1 mice (blood, kidney, liver, lung)
Assay type: in vivo
Details: male, CD-1, mouse, kidney, intravenous, 20 mg/kg, Kidney; 24 h; 20 mg/kg IV; mean; read-out: Concentration (µM) from 20 mg/kg Dosing Kidney
PROPERTY MEASURED: concentration at 24 h (µM)

Cc1ncsc1-c1ccc(C(C)NC(=O)C2CC(O)CN2C(=O)C(c2cc(N3CCC(CN4CCC(OC5CC(Oc6cc(N7C8CCC7CN(c7cc(-c9ccccc9O)nnc7N)C8)ccn6)C5)CC4)CC3)no2)C(C)C)cc1 (stereo not shown)    0.361

###

Assay: Mouse pharmacokinetics in CD-1 mice (blood, kidney, liver, lung)
Type: in vivo
Details: male, CD-1, mouse, in vivo, 20 mg/kg, Blood; 1 h; 20 mg/kg IV; mean; read-out: Concentration (µM) from 20 mg/kg Dosing Blood
PROPERTY MEASURED: concentration at 1 h (µM)

Cc1ncsc1-c1ccc(C(C)NC(=O)C2CC(O)CN2C(=O)C(c2cc(N3CCC(CN4CCC(OC5CC(Oc6cc(N7C8CCC7CN(c7cc(-c9ccccc9O)nnc7N)C8)ccn6)C5)CC4)CC3)no2)C(C)C)cc1 (stereo not shown) [A947]    0.847

###

Assay: Mouse pharmacokinetics in CD-1 mice (blood, kidney, liver, lung)
Format: in vivo
Conditions: male, CD-1, mouse, in vivo, 1 mg/kg, Liver; 8 h; 1 mg/kg IV; individual animals; read-out: Concentration (µM) from 1 mg/kg Dosing Liver
PROPERTY MEASURED: concentration at 8 h (µM)

Cc1ncsc1-c1ccc(C(C)NC(=O)C2CC(O)CN2C(=O)C(c2cc(N3CCC(CN4CCC(OC5CC(Oc6cc(N7C8CCC7CN(c7cc(-c9ccccc9O)nnc7N)C8)ccn6)C5)CC4)CC3)no2)C(C)C)cc1 (stereo not shown)    0.057

###

Test: Mouse pharmacokinetics in CD-1 mice (blood, kidney, liver, lung)
Assay type: in vivo
Details: male, CD-1, mouse, blood, intravenous, 1 mg/kg, Blood; 1 h; 1 mg/kg IV; individual animals; read-out: Concentration (µM) from 1 mg/kg Dosing Blood
PROPERTY MEASURED: concentration at 1 h

Cc1ncsc1-c1ccc(C(C)NC(=O)C2CC(O)CN2C(=O)C(c2cc(N3CCC(CN4CCC(OC5CC(Oc6cc(N7C8CCC7CN(c7cc(-c9ccccc9O)nnc7N)C8)ccn6)C5)CC4)CC3)no2)C(C)C)cc1 (stereo not shown)    0.027 µM

###

Assay: Mouse pharmacokinetics in CD-1 mice (blood, kidney, liver, lung)
Type: in vivo
Details: male, CD-1, mouse, in vivo, 1 mg/kg, Blood; 4 h; 1 mg/kg IV; individual animals; BLOQ <5.1 ng/mL; read-out: Concentration (µM) from 1 mg/kg Dosing Blood
PROPERTY MEASURED: concentration at 4 h (µM)

Cc1ncsc1-c1ccc(C(C)NC(=O)C2CC(O)CN2C(=O)C(c2cc(N3CCC(CN4CCC(OC5CC(Oc6cc(N7C8CCC7CN(c7cc(-c9ccccc9O)nnc7N)C8)ccn6)C5)CC4)CC3)no2)C(C)C)cc1 (stereo not shown)    0.005

###

Assay: Mouse pharmacokinetics in CD-1 mice (blood, kidney, liver, lung)
Assay type: in vivo
Details: male, CD-1, mouse, in vivo, 20 mg/kg, Liver; 4 h; 20 mg/kg IV; mean; read-out: Concentration (µM) from 20 mg/kg Dosing Liver
PROPERTY MEASURED: concentration at 4 h (µM)

Cc1ncsc1-c1ccc(C(C)NC(=O)C2CC(O)CN2C(=O)C(c2cc(N3CCC(CN4CCC(OC5CC(Oc6cc(N7C8CCC7CN(c7cc(-c9ccccc9O)nnc7N)C8)ccn6)C5)CC4)CC3)no2)C(C)C)cc1 (stereo not shown) [A947]    48.4

###

Assay: Mouse pharmacokinetics in CD-1 mice (blood, kidney, liver, lung)
Assay type: in vivo
Settings: male, CD-1, mouse, in vivo, 20 mg/kg, Kidney; 4 h; 20 mg/kg IV; mean; read-out: Concentration (µM) from 20 mg/kg Dosing Kidney
PROPERTY MEASURED: concentration at 4 h (µM)

Cc1ncsc1-c1ccc(C(C)NC(=O)C2CC(O)CN2C(=O)C(c2cc(N3CCC(CN4CCC(OC5CC(Oc6cc(N7C8CCC7CN(c7cc(-c9ccccc9O)nnc7N)C8)ccn6)C5)CC4)CC3)no2)C(C)C)cc1 (stereo not shown) [A947]    14

###

Experiment: Mouse pharmacokinetics in CD-1 mice (blood, kidney, liver, lung)
Assay type: in vivo
Conditions: male, CD-1, mouse, in vivo, 20 mg/kg, Lung; 4 h; 20 mg/kg IV; mean; read-out: Concentration (µM) from 20 mg/kg Dosing Lung
PROPERTY MEASURED: concentration at 4 h (µM)

Cc1ncsc1-c1ccc(C(C)NC(=O)C2CC(O)CN2C(=O)C(c2cc(N3CCC(CN4CCC(OC5CC(Oc6cc(N7C8CCC7CN(c7cc(-c9ccccc9O)nnc7N)C8)ccn6)C5)CC4)CC3)no2)C(C)C)cc1 (stereo not shown)    5.75

###

Molecular target: CYP1A2 (Homo sapiens)
Construct: phosphate buffer (100 mM, pH 7.4) containing human liver microsomes (HLM); from tissue; host or cells: human liver microsomes
Sequence (P05177 whole entry): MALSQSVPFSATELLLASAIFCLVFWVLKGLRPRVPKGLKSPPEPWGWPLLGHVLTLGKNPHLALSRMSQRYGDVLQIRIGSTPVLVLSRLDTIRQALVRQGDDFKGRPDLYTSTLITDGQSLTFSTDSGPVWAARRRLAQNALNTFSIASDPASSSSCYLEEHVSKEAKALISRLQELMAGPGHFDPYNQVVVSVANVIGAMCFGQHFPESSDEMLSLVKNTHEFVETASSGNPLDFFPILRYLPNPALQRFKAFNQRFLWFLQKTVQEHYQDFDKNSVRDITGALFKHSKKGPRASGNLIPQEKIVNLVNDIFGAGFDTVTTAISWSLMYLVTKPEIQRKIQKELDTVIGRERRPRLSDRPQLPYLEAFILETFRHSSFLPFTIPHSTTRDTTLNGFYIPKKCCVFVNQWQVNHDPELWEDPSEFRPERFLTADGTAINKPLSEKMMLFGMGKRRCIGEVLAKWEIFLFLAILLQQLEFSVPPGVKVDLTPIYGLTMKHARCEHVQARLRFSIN
Assay: Reversible P450 inhibition in HLM
Format: biochemical
Conditions: human liver microsomes, pH 7.4, probe tacrine, substrate Tacrine
PROPERTY MEASURED: IC50

Cc1ncsc1-c1ccc(C(C)NC(=O)C2CC(O)CN2C(=O)C(c2cc(N3CCC(CN4CCC(OC5CC(Oc6cc(N7C8CCC7CN(c7cc(-c9ccccc9O)nnc7N)C8)ccn6)C5)CC4)CC3)no2)C(C)C)cc1 (stereo not shown)    > 10 µM

###

Assay: Mouse pharmacokinetics in CD-1 mice (blood, kidney, liver, lung)
Assay type: in vivo
Conditions: male, mouse, blood, kidney, liver, lung (per row, column Matrix); CD-1 mice IV; dose = c0, matrix = c1 of the line
Experimental: For the PK study, a total of 42 male CD-1 mice weighing ~20-35 g were acquired from Lingchang/Vital River Laboratory Animal Co., Ltd. (Shanghai/Beijing, P.R. China) and divided into 2 treatment groups. […] For the low-dose groups, nine animals were required for organ quantification with termination at 24 hours. For the high-dose groups, 12 animals were required for organ quantification with termination at 48 hours. […] The concentrations of […] were quantified by an LC-MS/MS method. […]
PROPERTY MEASURED: Tmax (min)

Cc1ncsc1-c1ccc(C(C)NC(=O)C2CC(O)CN2C(=O)C(c2cc(N3CCC(CN4CCC(OC5CC(Oc6cc(N7C8CCC7CN(c7cc(-c9ccccc9O)nnc7N)C8)ccn6)C5)CC4)CC3)no2)C(C)C)cc1 (stereo not shown)    4.98
